Tested on: TK-10
test details: NCI tumour cell line growth inhibition, 48 h
Activity calls are given as the source filed them. Cut-off read from the data, not from the text of the source: active = GI50 up to about 1.1 µM and inactive = higher.
experimental readout: GI50

- molecule: "COc1ccc2nc(-c3ccc(O)cc3)cc(O)c2c1"
  GI50: "8.97 µM (inactive)"
- molecule: "COc1ccc(CCCNC(=O)Cc2cc(OC)c(OC)cc2CO)cc1OC"
  GI50: "> 100 µM (inactive)"
- molecule: "COC(=O)[C@H](Cc1c[nH]c2ccccc12)NC(=O)c1ccc(CNC(=O)/C=C/c2cccc(Oc3ccccc3)c2)cc1"
  GI50: "> 100 µM (inactive)"
- molecule: "C[N+]1(C)C(c2ccccc2)C(=O)O[B@-]1(F)c1ccccc1 (stereo not given in full)"
  GI50: "> 100 µM (inactive)"
- molecule: "NC(=O)N=C(NCc1ccccc1)NCc1ccccc1"
  GI50: "> 100 µM (inactive)"

Give one value of GI50 per listed molecule.
1. CC(=O)OCC1OC(NC(=S)N/N=C2\CC(c3ccccc3)Oc3ccccc32)C(OC(C)=O)C(OC(C)=O)C1OC(C)=O (stereo not given)
2. COc1cc(Br)c(/C=N\c2cccc3cc(OC)c(OC)cc23)cc1OC
3. O=C(Nc1ccc(Cl)cc1Cl)C1C(=O)N(c2ccc(Cl)cc2Cl)C(=O)/C1=N\Nc1ccc([N+](=O)[O-])cc1[N+](=O)[O-] (stereo not given)
4. FC(F)(F)c1ccccc1N1CCN(c2nc(-c3cccs3)nc3ccc(Br)cc23)CC1

(A)
> 100 µM (inactive)
83.2 µM (inactive)
> 100 µM (inactive)
15.8 µM (inactive)

# GI50 (molecule: `Nc1c(C(=O)N/N=C/c2ccc(Cl)cc2)sc(=S)n1-c1ccccc1` ) is > 100 µM (inactive)
